The origin of these recorded values is patent US20240424125A1.

- SYSTEM: T1, recombinant His-tagged human FRα (ACROBiosystems) (human, UniProt P15328 25-233)
- T1 construct: also called hFRα; hFRα antigen; not shown: His tag
- T1 sequence (P15328 25-233 limits assumed): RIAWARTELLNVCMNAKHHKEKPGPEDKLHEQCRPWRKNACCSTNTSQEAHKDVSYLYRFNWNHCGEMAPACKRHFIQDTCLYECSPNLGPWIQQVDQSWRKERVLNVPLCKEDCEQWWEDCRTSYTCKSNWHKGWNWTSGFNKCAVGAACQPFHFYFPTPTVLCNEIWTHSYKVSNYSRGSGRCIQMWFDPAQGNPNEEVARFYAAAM
- EXPERIMENTAL_DETAILS: BLI (Octet RED96) as in Example 8: antibody captured, His-tagged hFRα as analyte, mean of n=2
MEASUREMENT_LABEL: pKd
One number for each entry, as −log10 of the molar value.

Below are worked cases with known answers.
# BINDER, pKd
rows = [
    ("v35350 (antibody, human IgG1, kappa, V domains shown) VH: EVQLLESGGGLVQPGGSLRLSCAVSGFSLSLYGVSWVRQAPGKGLEWIGAVNSGGSAYYADSFKGRSTISRDNSKNTVYLQMNSLRAEDTAVYYCARSGSGYPMDYHPIWGQGTLVTVSS VL: DYQMTQSPSSVSASVGDRVTITCRASQSIWYWLAWYQQKPGKAPKLLIYEASTLASGVPSRFSGSGSGTDFTLTISSVQPEDAATYYCQQGYGRWHILNIFGGGTKVEVKR", 8.45),
    ("v36168 (antibody, human IgG1, kappa, V domains shown) VH: EVQLLESGGGLVQPGGSLRLSCAVSGFSLSLYGVSWVRQAPGKGLEWIGSVNSGGSAYYADSVKGRSTISRDNSKNTVYLQMNSLRAEDTAVYYCARSGSGYPMDYLAIWGQGTLVTVSS VL: DYQMTQSPSSVSASVGDRVTITCRASQSIWYWLAWYQQKPGKAPKLLIYEASTLASGVPSRFSGSGSGTDFTLTISSVQPEDAATYYCQQGYGRWHILNIFGGGTKVEVKR", 8.30),
    ("v35348 (antibody, human IgG1, kappa, V domains shown) VH: EVQLLESGGGLVQPGGSLRLSCAVSGFSLSLYGVSWVRQAPGKGLEWIGAVNSGGSAYYADSFKGRSTISRDNSKNTVYLQMNSLRAEDTAVYYCARSGSGYPMDYHPIWGQGTLVTVSS VL: DYQMTQSPSSVSASVGDRVTITCRASQSIGDWLAWYQQKPGKAPKLLIYEASTLASGVPSRFSGSGSGTDFTLTISSVQPEDAATYYCQQGYGRWHILNIFGGGTKVEVKR", 8.66),
    ("v35347 (antibody, human IgG1, kappa, V domains shown) VH: EVQLLESGGGLVQPGGSLRLSCAVSGFSLSLYGVSWVRQAPGKGLEWIGAVNSGGSAYYADSFKGRSTISRDNSKNTVYLQMNSLRAEDTAVYYCARSGSGYPMDYHPIWGQGTLVTVSS VL: DYQMTQSPSSVSASVGDRVTITCRASQSIGDWLAWYQQKPGKAPKLLIYEASTLASGVPSRFSGSGSGTDFTLTISSVQPEDAATYYCQQGYGRSNVDNIFGGGTKVEVKR", 8.06),
]

State, in one line, measured pKd of v35356 (antibody, human IgG1, kappa, V domains shown) VH: EVQLLESGGGLVQPGGSLRLSCAVSGFSLSSYGVSWVRQAPGKGLEWIGAVNSGGSAYYADSFKGRSTISRDNSKNTVYLQMNSLRAEDTAVYYCARSGSGYPMDYHPIWGQGTLVTVSS VL: DYQMTQSPSSVSASVGDRVTITCRASQSIGDWLAWYQQKPGKAPKLLIYEASTLASGVPSRFSGSGSGTDFTLTISSVQPEDAATYYCQQGYGRWHILNIFGGGTKVEVKR
8.30
